SYSTEM_TESTED: NRAS WT (Homo sapiens, UniProt P01111+P62937)
Sequence (P01111 whole entry): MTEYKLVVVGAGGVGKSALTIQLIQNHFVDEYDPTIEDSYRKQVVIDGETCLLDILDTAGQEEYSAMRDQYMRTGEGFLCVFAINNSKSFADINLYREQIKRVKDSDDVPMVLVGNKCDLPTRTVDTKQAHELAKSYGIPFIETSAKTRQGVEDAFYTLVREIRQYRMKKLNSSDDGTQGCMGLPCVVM
Sequence (P62937 whole entry): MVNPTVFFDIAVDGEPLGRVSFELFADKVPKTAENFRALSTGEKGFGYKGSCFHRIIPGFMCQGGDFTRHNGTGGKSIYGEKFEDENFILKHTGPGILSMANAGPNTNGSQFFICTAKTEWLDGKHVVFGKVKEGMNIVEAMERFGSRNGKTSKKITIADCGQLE
EXPERIMENTAL_DETAILS: Ras-Raf disruption / FRET / MOA assay (BRAF RBD)
Type: biochemical
EXPERIMENTAL_ENDPOINT: IC50

Worked examples, 3 molecules total:
- MOLECULE: "CCn1c(-c2cccnc2[C@H](C)OC)c2c3cc(ccc31)-c1cc(O)cc(c1)C[C@H](NC(=O)[C@H](C(C)C)N(C)C(=O)CN(C)C(=O)[C@@H]1N[C@@H]1C(C)C)C(=O)N1CCC[C@H](N1)C(=O)OCC(C)(C)C2"
  IC50: "< 10 nM"
- MOLECULE: "CCn1c(-c2cccnc2[C@H](C)OC)c2c3cc(ccc31)-c1cc(O)cc(c1)C[C@H](NC(=O)[C@H](C(C)C)N(C)C(=O)CN(C)C(=O)[C@@H]1CN1CCCC#N)C(=O)N1CCC[C@H](N1)C(=O)OCC(C)(C)C2 (stereo partly shown)"
  IC50: "10 to 100 nM"
- MOLECULE: "CCn1c(-c2cccnc2[C@H](C)OC)c2c3cc(ccc31)-c1cc(O)cc(c1)C[C@H](NC(=O)[C@H](C(C)C)N(C)C(=O)CN(C)C(=O)[C@@H]1N[C@H]1C1COC1)C(=O)N1CCC[C@H](N1)C(=O)OCC(C)(C)C2"
  IC50: "10 to 100 nM"

Bench note: what IC50 did CCn1c(-c2cccnc2[C@H](C)OC)c2c3cc(ccc31)-c1cc(O)cc(c1)C[C@H](NC(=O)[C@H](C1CCCC1)N(C)C(=O)[C@@H](C)N(C)C(=O)[C@@H]1N[C@@H]1C1CC1)C(=O)N1CCC[C@H](N1)C(=O)OCC(C)(C)C2 show?
> 10000 nM

I have this molecule here, CCn1c(-c2cccnc2[C@H](C)OC)c2c3cc(ccc31)-c1cc(O)cc(c1)C[C@H](NC(=O)[C@H](C1CCCC1)N(C)C(=O)CN(C)C(=O)[C@H]1N[C@H]1C1(C#N)CC1)C(=O)N1CCC[C@H](N1)C(=O)OCC(C)(C)C2 , and I need its recorded IC50.
10 to 100 nM

Given the molecule CCn1c(-c2cccnc2[C@H](C)OC)c2c3cc(ccc31)-c1cc(O)cc(c1)C[C@H](NC(=O)[C@H](C(C)C)N(C)C(=O)C13CC(CN1C(=O)[C@@H]1CN1)C3)C(=O)N1CCC[C@H](N1)C(=O)OCC(C)(C)C2 , what is its reported IC50?
100 to 1000 nM

IC50 for CCn1c(-c2cccnc2[C@H](C)OC)c2c3cc(ccc31)-c1cc(O)cc(c1)C[C@H](NC(=O)[C@H](C(C)C)N(C)C(=O)CN(C)C(=O)[C@@H]1N[C@@H]1C1CCC1)C(=O)N1CCC[C@H](N1)C(=O)OCC(C)(C)C2 ?
10 to 100 nM

Any idea what its IC50 is? The molecule is CCn1c(-c2cccnc2[C@H](C)OC)c2c3cc(ccc31)-c1cc(O)cc(c1)C[C@H](NC(=O)[C@H](C(C)C)N(C)C(=O)C13CC(CN1C(=O)[C@H]1CN1)C3)C(=O)N1CCC[C@H](N1)C(=O)OCC(C)(C)C2
100 to 1000 nM

State the recorded IC50 for this entry: CCn1c(-c2cc(C3CCN(C)CC3)cnc2[C@H](C)OC)c2c3cc(ccc31)-c1cc(O)cc(c1)C[C@H](NC(=O)[C@H](C1CCCC1)N(C)C(=O)CN(C)C(=O)[C@H]1CN1)C(=O)N1CCC[C@H](N1)C(=O)OCC(C)(C)C2
10 to 100 nM

# lookup: IC50 of CCn1c(-c2cccnc2[C@H](C)OC)c2c3cc(ccc31)-c1cc(O)cc(c1)C[C@H](NC(=O)[C@H](C1CCCC1)N(C)C(=O)CN(C)C(=O)[C@H]1N[C@H]1C1(OC)CC1)C(=O)N1CCC[C@H](N1)C(=O)OCC(C)(C)C2 (single isomer, unassigned)
10 to 100 nM

---

SYSTEM_TESTED: KRAS G12D (Homo sapiens, UniProt P01116+P62937, G12D)
Sequence (P01116 1-169 isoform P01116-2 G12D limits assumed): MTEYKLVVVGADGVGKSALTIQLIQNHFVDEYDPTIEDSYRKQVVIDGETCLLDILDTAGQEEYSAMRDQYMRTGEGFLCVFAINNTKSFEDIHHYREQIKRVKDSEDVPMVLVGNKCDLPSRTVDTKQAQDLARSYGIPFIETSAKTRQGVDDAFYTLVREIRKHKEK
Sequence (P62937 whole entry): as the sequence (P62937 whole entry) above
EXPERIMENTAL_DETAILS: Ras-Raf disruption / FRET / MOA assay (BRAF RBD)
Format: biochemical
CONDITION_CONTEXT: Ras-Raf disruption, with Cyclophilin A; read-out: KRAS G12D FRET data IC50
pIC50: −log10 of the molar value.
Item-by-item account of pIC50

- MOLECULE: "CCn1c(-c2cnccc2COC)c2c3cc(ccc31)-c1cccc(c1)C[C@H](NC(=O)[C@H](C(C)C)N(C)C(=O)CCN=C=NCCCN1CCOCC1)C(=O)N1CCC[C@H](N1)C(=O)OCC(C)(C)C2"
  pIC50: "5.00 to 6.00"
- MOLECULE: "CCn1c(-c2cnccc2COC)c2c3cc(ccc31)-c1cccc(c1)C[C@H](NC(=O)[C@H](C(C)C)N(C)C(=O)CCN=C=NC(C)(C)C)C(=O)N1CCC[C@H](N1)C(=O)OCC(C)(C)C2"
  pIC50: "< 5.00"
- MOLECULE: "CCn1c(-c2cccnc2[C@H](C)OC)c2c3cc(ccc31)-c1cc(O)cc(c1)C[C@H](NC(=O)[C@H](C(C)C)N(C)C(=O)CC1CN(C(=O)[C@H]3CN3)C1)C(=O)N1CCC[C@H](N1)C(=O)OCC(C)(C)C2"
  pIC50: "6.00 to 7.00"
- MOLECULE: "CCn1c(-c2cccnc2[C@H](C)OC)c2c3cc(ccc31)-c1cc(O)cc(c1)C[C@H](NC(=O)[C@H](C(C)C)N(C)C(=O)[C@H]1C[C@H]3CC[C@@H](C1)N3C(=O)[C@H]1CN1)C(=O)N1CCC[C@H](N1)C(=O)OCC(C)(C)C2 (atropisomer, axis not shown)"
  pIC50: "6.00 to 7.00"

Which pIC50 reading was recorded for the molecule CCn1c(-c2cccnc2[C@H](C)OC)c2c3cc(ccc31)-c1cc(O)cc(c1)C[C@H](NC(=O)[C@H](C(C)C)N(C)C(=O)C1CN(S(=O)(=O)[C@H]3CN3C)C1)C(=O)N1CCC[C@H](N1)C(=O)OCC(C)(C)C2 (single isomer, unassigned) ?
5.00 to 6.00

Quick one: pIC50 of CCn1c(-c2cccnc2[C@H](C)OC)c2c3cc(ccc31)-c1cc(O)cc(c1)C[C@H](NC(=O)[C@H](C(C)C)N(C)C(=O)N1CC[C@@H](N(C)C(=O)[C@H]3CN3)C1)C(=O)N1CCC[C@H](N1)C(=O)OCC(C)(C)C2 (atropisomer, axis not shown) ?
6.00 to 7.00

// returns reported pIC50 for input CCn1c(-c2cccnc2[C@H](C)OC)c2c3cc(ccc31)-c1cc(O)cc(c1)C[C@H](NC(=O)[C@H](C(C)C)N(C)C(=O)C1CCN(S(=O)(=O)[C@@H]3CN3C)CC1)C(=O)N1CCC[C@H](N1)C(=O)OCC(C)(C)C2 (single isomer, unassigned)
5.00 to 6.00

Data request, read-out pIC50, for CCn1c(-c2cccnc2[C@H](C)OC)c2c3cc(ccc31)-c1cc(O)cc(c1)C[C@H](NC(=O)[C@H](C(C)C)N(C)C(=O)[C@@]1(F)CCN(C(=O)[C@H]3CN3)C1)C(=O)N1CCC[C@H](N1)C(=O)OCC(C)(C)C2
7.00 to 8.00

---

# Lookup of reported pIC50 keyed by entry
SYSTEM_TESTED: KRAS G12D (Homo sapiens, UniProt P01116+P62937, G12D)
EXPERIMENTAL_DETAILS: Disruption of BRAF RBD interaction with Ras (FRET / MOA assay, with Cyclophilin A)
Assay type: biochemical
CONDITION_CONTEXT: read-out: KRAS G12D FRET data, IC50
pIC50: −log10 of the molar value.

- COMPOUND: "C=CC(=O)N1CC[C@H](C(=O)N(C)[C@H](C(=O)N[C@H]2Cc3cc(O)cc(c3)-c3ccc4c(c3)c(c(-c3cnccc3COC)n4CC)CC(C)(C)COC(=O)[C@@H]3CCCN(N3)C2=O)C(C)C)C1"
  VALUE_REPORTED: "6.00 to 7.00"

Endpoint output: pIC50 of CCn1c(-c2cc(N3CCN(C)CC3)cnc2[C@H](C)OC)c2c3cc(ccc31)-c1csc(n1)C[C@H](NC(C)=O)C(=O)N1CCC[C@H](N1)C(=O)OCC(C)(C)C2 [Example A321] . Value?
6.00 to 7.00

Any idea what its pIC50 is? The compound is CCn1c(-c2cnccc2COC)c2c3cc(ccc31)-c1cc(O)cc(c1)C[C@H](NC(=O)[C@H](C(C)C)N(C)C(=O)[C@H]1CCOC1)C(=O)N1CCC[C@H](N1)C(=O)OCC(C)(C)C2
5.00 to 6.00

I'd like to know its pIC50. The compound in question is C=CC(=O)N1CC[C@H](C(=O)N(C)[C@H](C(=O)N[C@H]2Cc3cc(O)cc(c3)-c3ccc4c(c3)c(c(-c3ccncc3)n4C(C)(C)C#N)CC(C)(C)COC(=O)[C@@H]3CCCN(N3)C2=O)C(C)C)C1
5.00 to 6.00

GET /values?readout=pIC50&item= CCn1c(-c2cnccc2COC)c2c3cc(ccc31)-c1cc(O)cc(c1)C[C@H](NC(=O)[C@H](C(C)C)N(C)C(=O)c1ncco1)C(=O)N1CCC[C@H](N1)C(=O)OCC(C)(C)C2
5.00 to 6.00
